Target: human glucagon-like peptide-1 receptor (GLP-1R) (Homo sapiens, UniProt P43220)
Construct: host or cells: CHO chAMPion cells
Sequence (P43220 24-463): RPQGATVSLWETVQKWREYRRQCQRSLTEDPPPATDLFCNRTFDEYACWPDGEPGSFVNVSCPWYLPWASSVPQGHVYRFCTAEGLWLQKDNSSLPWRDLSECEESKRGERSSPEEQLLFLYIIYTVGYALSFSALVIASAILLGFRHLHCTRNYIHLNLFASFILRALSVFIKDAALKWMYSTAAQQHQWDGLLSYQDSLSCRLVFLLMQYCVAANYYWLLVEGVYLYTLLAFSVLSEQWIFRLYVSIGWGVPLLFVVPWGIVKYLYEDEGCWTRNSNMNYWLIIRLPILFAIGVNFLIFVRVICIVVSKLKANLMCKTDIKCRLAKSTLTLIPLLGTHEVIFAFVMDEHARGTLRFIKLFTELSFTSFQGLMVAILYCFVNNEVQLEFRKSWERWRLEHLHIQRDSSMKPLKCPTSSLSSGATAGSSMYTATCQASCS
Test: Human GLP-1 receptor cell-based assay (flash luminescence, Target Activation phase)
Details: CHO chAMPion cells stably co-expressing human GLP-1R, Photina and cAMP-activated calcium channel; agonist activity; normalization by forskolin at 10 μM; ^a) values from single experiment; read-out: EC50 (μM) Target Activation (TA)
Description: CHO chAMPion cells (Axxam SpA; S. Corazza, Assay Drug Dev. Technol. 2009, 7, 304-307) stably co-expressing the human glucagon-like peptide-1 receptor (GLP-1R), the Ca^2+-sensitive photoprotein PHOTINA® (S. Bovolenta et al., J. Biomol. Screen. 2007, 12, 694-704) and a mutated cAMP-activated calcium ion channel (WO2004/083803 A2) were used to monitor GLP-1R signaling after stimulation with an agonist. […]
Where a SMILES comes first, the peptide text is derived from it. [ ]: non-standard residue; d: D form. Tyr(Ph) = N[C@@H](Cc1ccc(Oc2ccccc2)cc1)C(=O)O; Phe(4-NH2) = Nc1ccc(C[C@H](N)C(=O)O)cc1; 3Pal = N[C@@H](Cc1cccnc1)C(=O)O; Aad = N[C@@H](CCCC(=O)O)C(=O)O; Ac6c = NC1(C(=O)O)CCCCC1; Aib = CC(C)(N)C(=O)O

- COMPOUND: "CC(C)C[C@@H]1NC(=O)[C@H](CC(C)C)NC(=O)[C@H](CCC(=O)O)NC(=O)[C@H](Cc2ccccc2)NC(=O)C(C)(C)NC(=O)[C@H]2CCCN2C(=O)[C@H](Cc2ccccc2)NC(=O)[C@H](CCC(=O)O)NC(=O)[C@H](Cc2c[nH]c3ccccc23)NC(=O)[C@H](C)NC1=O [compound 45] (cyclo(FELLAWEF[dP][Aib]))"
  EC50: "1.8 µM"
- COMPOUND: "C[C@@H]1NC(=O)[C@H](Cc2ccc(O)cc2)NC(=O)[C@H](CCC(N)=O)NC(=O)[C@H](Cc2cccnc2)NC(=O)[C@H](Cc2ccccc2)NC(=O)C2(CCCCC2)NC(=O)[C@H]2CCCN2C(=O)[C@H](Cc2ccc(O)cc2)NC(=O)[C@H](CCC(=O)O)NC(=O)[C@H](Cc2c[nH]c3ccccc23)NC1=O [compound 2] (cyclo(F[3Pal]QYAWEY[dP][Ac6c]))"
  EC50: "0.28 µM"
- COMPOUND: "C[C@@H]1NC(=O)[C@H](Cc2ccccc2)NC(=O)[C@H](CCC(N)=O)NC(=O)[C@H](Cc2c[nH]c3ccccc23)NC(=O)[C@H](Cc2ccccc2)NC(=O)C2(CCCCC2)NC(=O)[C@H]2CCCN2C(=O)[C@H](Cc2ccc(O)cc2)NC(=O)[C@H](CCC(=O)O)NC(=O)[C@H](Cc2c[nH]c3ccccc23)NC1=O [compound 27] (cyclo(FWQFAWEY[dP][Ac6c]))"
  EC50: "0.58 µM"
- COMPOUND: "CC(C)C[C@@H]1NC(=O)[C@H](CCC(=O)O)NC(=O)[C@H](Cc2ccccc2)NC(=O)C2(CCCCC2)NC(=O)[C@H]2CCCN2C(=O)[C@H](CCCNC(=N)N)NC(=O)[C@H](CCC(=O)O)NC(=O)[C@H](Cc2c[nH]c3ccccc23)NC(=O)[C@H](C)NC(=O)[C@H](Cc2ccc(O)cc2)NC1=O [compound 42] (cyclo(FELYAWER[dP][Ac6c]))"
  EC50: "2.2 µM"
- COMPOUND: "COc1ccc(C[C@@H]2NC(=O)[C@H](CC(C)C)NC(=O)[C@H](CCC(=O)O)NC(=O)[C@H](Cc3ccccc3)NC(=O)C3(CCCCC3)NC(=O)[C@H]3CCCN3C(=O)[C@H](Cc3ccc(OC)cc3)NC(=O)[C@H](CCC(=O)O)NC(=O)[C@H](Cc3c[nH]c4ccccc34)NC(=O)[C@H](C)NC2=O)cc1 [compound 34] (cyclo(FELY(Me)AWEY(Me)[dP][Ac6c]))"
  EC50: "0.73 µM"
- COMPOUND: "COc1ccc(C[C@@H]2NC(=O)[C@H](CCC(N)=O)NC(=O)[C@H](Cc3c[nH]c4ccccc34)NC(=O)[C@H](Cc3ccccc3)NC(=O)C3(CCCCC3)NC(=O)[C@H]3CCCN3C(=O)[C@H](Cc3ccc(O)cc3)NC(=O)[C@H](CCC(=O)O)NC(=O)[C@H](Cc3c[nH]c4ccccc34)NC(=O)[C@H](C)NC2=O)cc1 [compound 8] (cyclo(FWQY(Me)AWEY[dP][Ac6c]))"
  EC50: "0.35 µM"
- COMPOUND: "C[C@@H]1NC(=O)[C@H](Cc2ccc(O)cc2)NC(=O)[C@H](CCC(N)=O)NC(=O)[C@H](Cc2ccc(Oc3ccccc3)cc2)NC(=O)[C@H](Cc2ccccc2)NC(=O)C2(CCCCC2)NC(=O)[C@H]2CCCN2C(=O)[C@H](Cc2ccc(O)cc2)NC(=O)[C@H](CCC(=O)O)NC(=O)[C@H](Cc2c[nH]c3ccccc23)NC1=O [compound 7] (cyclo(F[Tyr(Ph)]QYAWEY[dP][Ac6c]))"
  EC50: "0.57 µM"
- COMPOUND: "CC(C)C[C@@H]1NC(=O)[C@H](CCC(N)=O)NC(=O)[C@H](Cc2ccccc2)NC(=O)C2(CCCCC2)NC(=O)[C@H]2CCCN2C(=O)[C@H](Cc2ccc(O)cc2)NC(=O)[C@H](CCCC(=O)O)NC(=O)[C@H](Cc2c[nH]c3ccccc23)NC(=O)[C@H](C)NC(=O)[C@H](Cc2ccc(O)cc2)NC1=O [compound 49] (cyclo(FQLYAW[Aad]Y[dP][Ac6c]))"
  EC50: "3.1 µM"
- COMPOUND: "CC(C)C[C@@H]1NC(=O)[C@H](CCC(=O)O)NC(=O)[C@H](Cc2ccccc2)NC(=O)C2(CCCCC2)NC(=O)[C@H]2CCCN2C(=O)[C@H](Cc2ccccc2)NC(=O)[C@H](CCC(=O)O)NC(=O)[C@H](Cc2c[nH]c3ccccc23)NC(=O)[C@H](C)NC(=O)[C@H](Cc2ccc(O)cc2)NC1=O [compound 31] (cyclo(FELYAWEF[dP][Ac6c]))"
  EC50: "0.68 µM"
- COMPOUND: "C[C@@H]1NC(=O)[C@H](Cc2ccc(O)cc2)NC(=O)[C@H](CCC(N)=O)NC(=O)[C@H](Cc2c[nH]c3ccccc23)NC(=O)[C@H](Cc2ccccc2)NC(=O)C2(CCCCC2)NC(=O)[C@H]2CCCN2C(=O)[C@H](Cc2ccc(N)cc2)NC(=O)[C@H](CCC(=O)O)NC(=O)[C@H](Cc2c[nH]c3ccccc23)NC1=O [compound 30] (cyclo(FWQYAWE[Phe(4-NH2)][dP][Ac6c]))"
  EC50: "0.63 µM"
- COMPOUND: "COc1ccc(C[C@@H]2NC(=O)[C@H](CC(C)C)NC(=O)[C@H](CCC(=O)O)NC(=O)[C@H](Cc3ccccc3)NC(=O)C3(CCCCC3)NC(=O)[C@H]3CCCN3C(=O)[C@H](Cc3ccc(O)cc3)NC(=O)[C@H](CCC(=O)O)NC(=O)[C@H](Cc3c[nH]c4ccccc34)NC(=O)[C@H](C)NC2=O)cc1 [compound 29] (cyclo(FELY(Me)AWEY[dP][Ac6c]))"
  EC50: "0.62 µM"
